Provide the recorded inhibition for the entries that follow.
Molecular target: Amyloid-beta precursor protein (Homo sapiens)
Sequence (P05067 whole entry): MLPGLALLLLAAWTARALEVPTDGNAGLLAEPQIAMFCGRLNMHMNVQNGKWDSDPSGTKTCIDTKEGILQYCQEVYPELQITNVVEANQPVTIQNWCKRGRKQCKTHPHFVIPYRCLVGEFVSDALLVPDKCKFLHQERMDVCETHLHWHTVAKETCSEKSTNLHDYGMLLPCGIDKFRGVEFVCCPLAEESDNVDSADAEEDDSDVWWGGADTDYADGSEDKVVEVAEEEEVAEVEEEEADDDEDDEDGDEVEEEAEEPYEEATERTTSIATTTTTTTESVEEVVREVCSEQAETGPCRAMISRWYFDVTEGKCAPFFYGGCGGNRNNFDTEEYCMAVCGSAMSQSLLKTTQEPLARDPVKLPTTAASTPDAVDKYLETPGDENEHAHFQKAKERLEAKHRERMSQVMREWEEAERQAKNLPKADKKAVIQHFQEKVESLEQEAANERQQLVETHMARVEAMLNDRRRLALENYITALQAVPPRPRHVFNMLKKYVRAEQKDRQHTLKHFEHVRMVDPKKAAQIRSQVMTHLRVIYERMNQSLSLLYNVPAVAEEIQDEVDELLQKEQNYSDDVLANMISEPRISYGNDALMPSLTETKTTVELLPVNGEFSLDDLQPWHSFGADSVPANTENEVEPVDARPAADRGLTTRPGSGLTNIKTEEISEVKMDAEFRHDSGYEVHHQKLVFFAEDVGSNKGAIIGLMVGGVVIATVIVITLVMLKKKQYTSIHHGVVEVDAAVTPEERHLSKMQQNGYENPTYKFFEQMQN
Experiment: Inhibition of amyloid beta (1 to 42) (unknown origin) self-aggregation at 20 uM after 24 hrs by thioflavin-T fluorescence assay relative to control
Give bare numbers, in %.

Past entries and their recorded results:
C[C@H]1[C@H]2[C@H](C[C@H]3[C@@H]4CC[C@@H]5C[C@@H](OCc6ccccc6)CC[C@]5(C)[C@H]4CC[C@]23C)O[C@@H]1CC[C@H](C)C(=O)NCc1cn(Cc2ccc(F)cc2)nn1 37.5
C[C@H]1[C@H]2[C@H](C[C@H]3[C@@H]4CC[C@@H]5C[C@@H](OCc6ccccc6)CC[C@]5(C)[C@H]4CC[C@]23C)O[C@@H]1CC[C@H](C)C(=O)NCc1cn(Cc2ccc(Br)cc2)nn1 55.8
C[C@H]1[C@H]2[C@H](C[C@H]3[C@@H]4CC[C@@H]5C[C@@H](OCc6ccccc6)CC[C@]5(C)[C@H]4CC[C@]23C)O[C@@H]1CC[C@H](C)C(=O)NCc1cn(Cc2ccccc2)nn1 64.2
C[C@H]1[C@H]2[C@H](C[C@H]3[C@@H]4CC[C@@H]5C[C@@H](OCc6ccccc6)CC[C@]5(C)[C@H]4CC[C@]23C)O[C@@H]1CC[C@H](C)C(=O)NCc1cn(C)nn1 8.34

Here's the next entry for you.
stdin: Which inhibition reading was recorded for the molecule "C[C@H]1[C@H]2[C@H](C[C@H]3[C@@H]4CC[C@@H]5C[C@@H](OCc6ccccc6)CC[C@]5(C)[C@H]4CC[C@]23C)O[C@@H]1CC[C@H](C)C(=O)NCc1cn(Cc2ccc([N+](=O)[O-])cc2)nn1" ?
stdout: 70.7
